molecular target: D2-like dopamine receptors (Rattus norvegicus, UniProt P61169); construct: Striatal tissue from the brains of male Charles River CD rats; test: inhibition of tritiated (S)-sulpiride binding to D2-like dopamine receptors in rat striatal tissue; details: tritiated (S)-sulpiride 1 nM, rat striatum, 4° C., 40 minutes
Sequence (P61169 whole entry): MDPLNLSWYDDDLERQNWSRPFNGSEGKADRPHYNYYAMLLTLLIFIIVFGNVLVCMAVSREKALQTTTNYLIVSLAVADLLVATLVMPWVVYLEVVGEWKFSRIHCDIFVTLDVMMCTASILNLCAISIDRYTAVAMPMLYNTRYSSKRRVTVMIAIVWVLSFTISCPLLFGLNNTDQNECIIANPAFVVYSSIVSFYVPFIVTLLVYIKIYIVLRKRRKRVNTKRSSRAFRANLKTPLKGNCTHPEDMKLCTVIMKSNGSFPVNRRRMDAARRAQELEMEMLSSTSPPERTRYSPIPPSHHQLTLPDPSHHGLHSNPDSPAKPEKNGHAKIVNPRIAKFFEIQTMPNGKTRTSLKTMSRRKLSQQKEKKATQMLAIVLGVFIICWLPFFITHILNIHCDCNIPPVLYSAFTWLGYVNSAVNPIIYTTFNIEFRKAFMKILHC
ENDPOINT LABEL: pKi
Entry type: numeric. Quantity: pKi, the -log10 of concentration in molar units.

# pKi lookup, item Nc1ncccc1C(=O)NCC1CCN(C[C@H]2COc3ccc4[nH]ccc4c3O2)CC1
8.12

====

biological target: α1-adrenoceptors; experiment: inhibition of [7-methoxy-3H]prazosin binding to α1-adrenoceptors in rat whole cortical tissue; details: [7-methoxy-3H]prazosin 0.1 nM, rat cortex, 30° C., 30 minutes
ENDPOINT LABEL: Ki
Answer format: value, then unit.

# Ki lookup, item Nc1ncccc1C(=O)NCC1CCN(C[C@H]2COc3ccc4[nH]ccc4c3O2)CC1
0.0124 µM
